B1: FBF1 (parent)
chain: YQRPQDSEDMWGDEDFTFGAYQPT

variants of: B1; assay: protein stability index of a GFP-peptide fusion (GPS, HEK-293T) (PSI 1-6); higher = more stable; details: c terminus: a fixed tail appended;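 further: lentivirally expressed fusions sorted by FACS into six bins by GFP to DsRed ratio, PSI derived from sequencing read proportions per bin multiplied by bin number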
Kindly return rule met if reported protein stability index is no lower than 3; return rule not met if it is lower.

[[record]]
variant_name = "R3D"
classification = "rule met"

[[record]]
variant_name = "S7V"
classification = "rule not met"

[[record]]
variant_name = "S7Y"
classification = "rule not met"

[[record]]
variant_name = "G19V"
classification = "rule not met"

[[record]]
variant_name = "F16R"
classification = "rule not met"

[[record]]
variant_name = "D9K"
classification = "rule not met"

[[record]]
variant_name = "T24G"
classification = "rule met"

[[record]]
variant_name = "M10C"
classification = "rule met"

[[record]]
variant_name = "D15L"
classification = "rule not met"

[[record]]
variant_name = "W11Y"
classification = "rule met"

[[record]]
variant_name = "D13A"
classification = "rule not met"

[[record]]
variant_name = "T17M"
classification = "rule not met"

[[record]]
variant_name = "Q22N"
classification = "rule not met"

[[record]]
variant_name = "T24L"
classification = "rule not met"

[[record]]
variant_name = "S7Q"
classification = "rule not met"

[[record]]
variant_name = "G12K"
classification = "rule not met"

[[record]]
variant_name = "Y21K"
classification = "rule met"

[[record]]
variant_name = "T24H"
classification = "rule not met"

[[record]]
variant_name = "G12L"
classification = "rule not met"

[[record]]
variant_name = "Q22Y"
classification = "rule met"

[[record]]
variant_name = "Q5Y"
classification = "rule not met"

[[record]]
variant_name = "E8K"
classification = "rule not met"

[[record]]
variant_name = "D6H"
classification = "rule not met"

[[record]]
variant_name = "S7G"
classification = "rule not met"

[[record]]
variant_name = "P4E"
classification = "rule met"

[[record]]
variant_name = "A20M"
classification = "rule not met"

[[record]]
variant_name = "G12V"
classification = "rule not met"

[[record]]
variant_name = "Y21L"
classification = "rule met"

[[record]]
variant_name = "Q2Y"
classification = "rule met"

[[record]]
variant_name = "G19E"
classification = "rule met"

[[record]]
variant_name = "P23Y"
classification = "rule not met"

[[record]]
variant_name = "D6E"
classification = "rule not met"

[[record]]
variant_name = "F18R"
classification = "rule met"

[[record]]
variant_name = "G12E"
classification = "rule met"

[[record]]
variant_name = "P23T"
classification = "rule not met"

[[record]]
variant_name = "T24A"
classification = "rule not met"

[[record]]
variant_name = "S7R"
classification = "rule not met"

[[record]]
variant_name = "G12Y"
classification = "rule not met"

[[record]]
variant_name = "Q2N"
classification = "rule met"

[[record]]
variant_name = "P4V"
classification = "rule not met"

[[record]]
variant_name = "D13I"
classification = "rule not met"

[[record]]
variant_name = "T17K"
classification = "rule not met"

